molecules and their reported TGI
# System: MDA-MB-435
# Assay Summary: NCI tumour cell line growth inhibition, 48 h
Outcome Measure: TGI

>  <Molecule>
Cc1c(OCc2ccccc2)c(=O)ccn1CCc1c[nH]c2ccccc12

>  <Value Measured>
51.1 µM

$$$$
>  <Molecule>
O=CC(O)C(O)C(O)C1CNC(=S)O1 (stereo unspecified)

>  <Value Measured>
> 100 µM

$$$$
>  <Molecule>
CCCn1cnc2c(SCC(=O)O)nc(N)nc21

>  <Value Measured>
> 100 µM

$$$$
>  <Molecule>
CSc1ncc(Br)c(Sc2nc(N)nc3nc[nH]c23)n1

>  <Value Measured>
> 100 µM

$$$$
>  <Molecule>
Cc1cc(Nc2nc(C(=O)Nc3ccccc3)nc3ccccc23)n[nH]1

>  <Value Measured>
> 25 µM

$$$$
>  <Molecule>
Cc1cc(Cl)ccc1OCC(=O)Nc1nc(N)nc(N)n1

>  <Value Measured>
> 100 µM

$$$$
>  <Molecule>
COCC1OC(S(=O)(=O)c2ccccc2)C(O)C(OC)C1OC (stereo unspecified)

>  <Value Measured>
> 100 µM

$$$$
>  <Molecule>
COC(=O)C(CCC(=O)CCl)N1C(=O)c2ccccc2C1=O (stereo unspecified)

>  <Value Measured>
22 µM

$$$$
>  <Molecule>
O=c1c2cc(-c3ccccc3)sc2ncn1Cc1ccc(Cl)c(Cl)c1

>  <Value Measured>
> 100 µM

$$$$
>  <Molecule>
COC(=O)C12CC(NC(=O)c3csc([C@@H](C[C@H](C(C)C)N(C)C(=O)[C@@H](NC(=O)[C@H]4CCCCN4C)C4CC4)OC(C)=O)n3)(C1)C2

>  <Value Measured>
0.0197 µM

$$$$
>  <Molecule>
Cn1c(=O)c2[nH]c(SCCN3CCOCC3)nc2n(C)c1=S

>  <Value Measured>
> 100 µM

$$$$

Data credit: PubChem BioAssay (NCI)
